# target-system: Bile acid receptor (Homo sapiens, UniProt Q96RI1)
# Sequence (Q96RI1 whole entry): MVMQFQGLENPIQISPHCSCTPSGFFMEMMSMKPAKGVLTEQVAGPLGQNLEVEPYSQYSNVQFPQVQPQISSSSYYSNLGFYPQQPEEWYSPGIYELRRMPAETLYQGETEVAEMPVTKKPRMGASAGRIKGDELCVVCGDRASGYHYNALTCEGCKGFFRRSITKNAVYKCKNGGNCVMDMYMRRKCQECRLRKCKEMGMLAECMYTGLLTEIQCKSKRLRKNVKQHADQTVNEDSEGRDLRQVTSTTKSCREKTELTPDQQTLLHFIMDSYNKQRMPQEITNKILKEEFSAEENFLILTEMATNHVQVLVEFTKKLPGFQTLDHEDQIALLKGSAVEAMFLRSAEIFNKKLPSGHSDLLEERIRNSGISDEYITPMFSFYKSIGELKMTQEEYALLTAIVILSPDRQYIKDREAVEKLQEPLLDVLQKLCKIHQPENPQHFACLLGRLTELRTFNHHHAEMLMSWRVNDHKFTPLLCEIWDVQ
# test-details: Agonist activity at FXR
readout-type: pEC50
Keep in mind that pEC50 stands for -log10 of concentration in molar terms.

Query string: Identify measured pEC50 associated with "COC(=O)/C=C/c1cccc(N(Cc2ccc(-c3ccc(C(C)(C)C)cc3)cc2)C(=O)C(C)C)c1"
Result string: 6.46

Origin of values: BindingDB's records for doi:10.1016/j.bmcl.2012.09.045
